tested on: RAW-Dual; experiment: NF-kB SEAP reporter activity, fold change vs agonist alone; cytotoxicity flag (confluency mask): not cytotoxic; higher = enhanced NF-kB activity; settings: agonist: ODN 1826 (TLR9) 0.5 ug/mL
The full ranking holds about 2,900 compounds; the median of “NF-kB SEAP reporter activity, fold change vs agonist alone” is about 0.99, and the highest 2% start at about 2.6. Shown is part of a subset that was picked to be rich in the highest values.
measure: NF-kB SEAP reporter activity

{"molecule": "O=C(NO)c1cccc(C(=O)NCCc2ccccc2)c1 (library stock concentration (final ~1000-fold dilution): 10 mM)", "data_value": 1.12}
{"molecule": "Cc1n[nH]c2ccc(-c3cncc(OCC(N)Cc4ccccc4)c3)cc12 (configuration not stated) (library stock concentration (final ~1000-fold dilution): 10 mM)", "data_value": 0.962}
{"molecule": "CC1OC(OC2C(Oc3cc(O)c4c(c3)OC(c3ccc(O)cc3)CC4=O)OC(CO)C(O)C2O)C(O)C(O)C1O (configuration not stated) (library stock concentration (final ~1000-fold dilution): 10 mM)", "data_value": 1.04}
{"molecule": "CCc1nn(CCCN2CCN(c3cccc(Cl)c3)CC2)c(=O)n1CCOc1ccccc1.Cl (library stock concentration (final ~1000-fold dilution): 10 mM)", "data_value": 0.799}
{"molecule": "CNCCC(Oc1ccccc1C)c1ccccc1.Cl (configuration not stated) (library stock concentration (final ~1000-fold dilution): 10 mM)", "data_value": 0.76}
{"molecule": "O=c1n(CCCN2CCN(c3cccc(Cl)c3)CC2)nc2ccccn12 (library stock concentration (final ~1000-fold dilution): 10 mM)", "data_value": 1.65}
{"molecule": "Cn1cc(-c2cnn3c(N)c(Br)c(C4CCCNC4)nc23)cn1 (configuration not stated) (library stock concentration (final ~1000-fold dilution): 2 mM)", "data_value": 1.04}
{"molecule": "CC(NC(=O)CCC(F)(F)F)C(=O)NC1C(=O)N(CCO)c2ncccc2-c2ccccc21 (configuration not stated) (library stock concentration (final ~1000-fold dilution): 10 mM)", "data_value": 0.863}
{"molecule": "CN(C)CCCNC(=O)c1ccc(-c2cc(O)c3ncccc3c2)cc1 (library stock concentration (final ~1000-fold dilution): 10 mM)", "data_value": 1.38}
{"molecule": "Fc1ccc2c(/C=C/c3nnn[nH]3)c[nH]c2c1 (library stock concentration (final ~1000-fold dilution): 10 mM)", "data_value": 0.894}
{"molecule": "CC(C)(C)Cn1c(N)nc2ccc(-c3[nH]c(C(C)(C)C)nc3-c3ccc(F)cc3)nc21.CS(=O)(=O)O.CS(=O)(=O)O (library stock concentration (final ~1000-fold dilution): 10 mM water)", "data_value": 0.512}
{"molecule": "N#Cc1ccc(COCC2OC(n3c(NCc4ccc(Cl)c(Cl)c4)nc4c(N)ncnc43)C(O)C2O)cc1 (configuration not stated) (library stock concentration (final ~1000-fold dilution): 10 mM)", "data_value": 1.01}
{"molecule": "Cc1cccc(-c2nn3c(c2-c2ccnc4ccc(C(N)=O)cc24)CCC3)n1 (library stock concentration (final ~1000-fold dilution): 10 mM)", "data_value": 1.03}
{"molecule": "N#CC1CC2CC2N1C(=O)C(N)C12CC3CC(CC(O)(C3)C1)C2 (configuration not stated) (library stock concentration (final ~1000-fold dilution): 10 mM)", "data_value": 0.964}
{"molecule": "O=C(Nc1cccc(Br)c1)c1cccc(S(=O)(=O)N2CCCCCC2)c1 (library stock concentration (final ~1000-fold dilution): 10 mM)", "data_value": 1.79}
{"molecule": "c1ccc(-c2nn3c(c2-c2ccnc4cc(OCCN5CCOCC5)ccc24)CCC3)nc1 (library stock concentration (final ~1000-fold dilution): 2 mM)", "data_value": 1.07}
{"molecule": "Cc1[nH]c2ccccc2c1C1=C(NCCc2ccc(F)cc2)C(=O)N(C)C1=O (library stock concentration (final ~1000-fold dilution): 10 mM)", "data_value": 0.588}
{"molecule": "COc1ccc(CC(N)C(=O)NC2C(CO)OC(n3cnc4c(N(C)C)ncnc43)C2O)cc1.Cl.Cl (configuration not stated) (library stock concentration (final ~1000-fold dilution): 10 mM)", "data_value": 0.469}
{"molecule": "CCOc1ccc(Cc2cc(C34OCC(CO)(O3)C(O)C(O)C4O)ccc2Cl)cc1 (configuration not stated) (library stock concentration (final ~1000-fold dilution): 10 mM)", "data_value": 1.1}
{"molecule": "O=C(N/N=C/c1ccc(O)c(O)c1)c1cc2ccccc2cc1O (library stock concentration (final ~1000-fold dilution): 10 mM)", "data_value": 0.257}
{"molecule": "Cl.O=c1n(CCCN2CCN(c3cccc(Cl)c3)CC2)nc2ccccn12 (library stock concentration (final ~1000-fold dilution): 2 mM)", "data_value": 1.04}
{"molecule": "CC1(F)C(O)C(CO)OC1n1ccc(=O)[nH]c1=O (configuration not stated) (library stock concentration (final ~1000-fold dilution): 10 mM)", "data_value": 0.945}

###

test system: RAW-Dual; assay: NF-kB SEAP reporter activity, fold change vs agonist alone; cytotoxicity flag (confluency mask): not cytotoxic; higher = enhanced NF-kB activity; conditions: agonist: ODN 1826 (TLR9) 0.5 ug/mL
The full ranking holds about 2,900 compounds; the median of “NF-kB SEAP reporter activity, fold change vs agonist alone” is about 0.99, and the highest 2% start at about 2.6. What follows is part of a selection rich in the highest values, with near analogues and random picks from the rest.
Rule: NF-kB SEAP reporter activity of 0.5 or more gives YES; anything lower gives NO.

{"compound": "CS(=O)(=O)CCNCc1ccc(-c2ccc3ncnc(Nc4ccc(OCc5cccc(F)c5)c(Cl)c4)c3c2)o1 (library stock concentration (final ~1000-fold dilution): 10 mM)", "class_name": "NO"}
{"compound": "CS(=O)(=O)CCNCc1ccc(-c2ccc3ncnc(Nc4ccc(OCc5cccc(F)c5)c(Cl)c4)c3c2)o1.Cc1ccc(S(=O)(=O)O)cc1.Cc1ccc(S(=O)(=O)O)cc1.O (library stock concentration (final ~1000-fold dilution): 10 mM)", "class_name": "NO"}
{"compound": "COC(=O)C1=C(C)NC(C)=C(C(=O)OCC(C)C)C1c1ccccc1[N+](=O)[O-] (stereo not given) (library stock concentration (final ~1000-fold dilution): 10 mM)", "class_name": "YES"}
{"compound": "C=CC(=O)Nc1ccc2ncnc(Nc3ccc(OCc4cccc(F)c4)c(Cl)c3)c2c1.Cc1ccc(S(=O)(=O)O)cc1 (library stock concentration (final ~1000-fold dilution): 10 mM)", "class_name": "YES"}
{"compound": "CS(=O)(=O)CCNCc1ccc(-c2ccc3ncnc(Nc4ccc(OCc5cccc(F)c5)c(Cl)c4)c3c2)o1.Cc1ccc(S(=O)(=O)O)cc1.Cc1ccc(S(=O)(=O)O)cc1 (library stock concentration (final ~1000-fold dilution): 10 mM)", "class_name": "NO"}
{"compound": "Cc1cc(Nc2nc(NC(C)c3ccc(F)cc3)c(C#N)cc2F)n[nH]1 (stereo not given) (library stock concentration (final ~1000-fold dilution): 10 mM)", "class_name": "YES"}
{"compound": "N=C(N)NCCCC1NC(=O)C(CCCCN)NC(=O)C(Cc2ccccc2)NC(=O)C(CC(=O)O)NC(=O)CNC1=O.O=C(O)C(F)(F)F (stereo not given) (library stock concentration (final ~1000-fold dilution): 10 mM)", "class_name": "YES"}
{"compound": "Cl.O=C1C2CCCCC2C(=O)N1CCCCN1CCN(c2nsc3ccccc23)CC1 (stereo not given) (library stock concentration (final ~1000-fold dilution): 10 mM)", "class_name": "YES"}
{"compound": "COCCOc1cnc2ccn(C(C)c3nnc4c(F)cc(-c5cnn(C)c5)cn34)c(=O)c2c1 (stereo not given) (library stock concentration (final ~1000-fold dilution): 10 mM)", "class_name": "YES"}

###

tested on: RAW-Dual; test: NF-kB SEAP reporter activity, fold change vs agonist alone; cytotoxicity flag (confluency mask): not cytotoxic; higher = enhanced NF-kB activity; settings: agonist: Pam2CSK4 (TLR2/6) 0.1 ug/mL
Whole data set: some 2,900 compounds, median “NF-kB SEAP reporter activity, fold change vs agonist alone” near 0.99, cut for the highest 2% near 2.6. The list comes from a sample in which the highest values are over-represented; it also holds close analogues and randomly drawn compounds.

{"molecule": "CCOc1cc(N2CCC(O)CC2)ccc1Nc1ncc2c(n1)N(C)c1ccccc1C(=O)N2C (library stock concentration (final ~1000-fold dilution): 10 mM)", "NF-kB SEAP reporter activity": 1}
{"molecule": "COc1cc(C(=O)N2CCC(N3CCN(C)CC3)CC2)ccc1Nc1ncc2c(n1)N(C)c1ccccc1C(=O)N2C (library stock concentration (final ~1000-fold dilution): 10 mM)", "NF-kB SEAP reporter activity": 1.02}
{"molecule": "Cc1nccn1CC1CCc2c(c3ccccc3n2C)C1=O.Cl (stereo not given) (library stock concentration (final ~1000-fold dilution): 10 mM)", "NF-kB SEAP reporter activity": 0.901}
{"molecule": "O=c1cc(-c2ccc(O)cc2)oc2c(C3OC(CO)C(O)C(O)C3O)c(O)cc(O)c12 (stereo not given) (library stock concentration (final ~1000-fold dilution): 10 mM)", "NF-kB SEAP reporter activity": 1}
{"molecule": "COc1cc(F)c(F)c(Nc2ccc(I)cc2F)c1NS(=O)(=O)C1(CC(O)CO)CC1 (stereo not given) (library stock concentration (final ~1000-fold dilution): 10 mM)", "NF-kB SEAP reporter activity": 0.342}
